Data origin: paper PMC6261661

Recorded EC50 by entry
- system under test: mMC4R (Mus musculus)
- Sequence (P56450 whole entry): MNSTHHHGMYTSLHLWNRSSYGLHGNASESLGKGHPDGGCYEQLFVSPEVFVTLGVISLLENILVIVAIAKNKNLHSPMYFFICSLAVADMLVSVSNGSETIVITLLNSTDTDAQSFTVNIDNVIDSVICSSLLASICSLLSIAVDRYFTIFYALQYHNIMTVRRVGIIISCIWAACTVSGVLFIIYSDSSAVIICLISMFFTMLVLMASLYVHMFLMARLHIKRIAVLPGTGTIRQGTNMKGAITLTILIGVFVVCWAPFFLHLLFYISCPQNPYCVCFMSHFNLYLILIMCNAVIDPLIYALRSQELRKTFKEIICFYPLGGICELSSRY
- measurement protocol: CRE/β-galactosidase reporter gene bioassay, agonist activity at mMC4R
- Type: cell-based
Square brackets hold non-standard residues; d marks the D form. Peptide text beside a SMILES is read from it. * marks the point of attachment. dBip = N[C@H](Cc1ccc(-c2ccccc2)cc1)C(=O)O; dPhe(4-I) = N[C@H](Cc1ccc(I)cc1)C(=O)O; 2Nal = N[C@@H](Cc1ccc2ccccc2c1)C(=O)O; d2Nal = N[C@H](Cc1ccc2ccccc2c1)C(=O)O; Bta = N[C@@H](Cc1csc2ccccc12)C(=O)O; 3Pal = N[C@@H](Cc1cccnc1)C(=O)O; 2Thi = N[C@@H](Cc1cccs1)C(=O)O; Octanoyl = CCCCCCCC(=O)*
Report the value in nM with no unit label.

[[record]]
compound = "CCCCCCCC(=O)N[C@@H](Cc1c[nH]c2ccccc12)C(=O)N[C@H](Cc1ccccc1)C(=O)N[C@@H](CCCNC(=N)N)C(=O)N[C@@H](Cc1c[nH]c2ccccc12)C(N)=O [Peptide 10, Octanoyl-Trp-DPhe-Arg-Trp-NH2] (Octanoyl-W[dF]RW-NH2)"
system_under_test = "mMC4R (Mus musculus)"
assay_value = 180

[[record]]
compound = "CC(=O)N[C@@H](Cc1c[nH]c2ccccc12)C(=O)N[C@H](Cc1ccccc1)C(=O)N[C@@H](CCCNC(=N)N)C(=O)N[C@H](Cc1ccc2ccccc2c1)C(N)=O [Peptide 26, Ac-Trp-DPhe-Arg-DNal(2’)-NH2] (Ac-W[dF]R[d2Nal]-NH2)"
system_under_test = "mMC4R (Mus musculus)"
assay_value = 4300

[[record]]
compound = "CC(=O)N[C@@H](Cc1c[nH]cn1)C(=O)N[C@H](Cc1ccc(I)cc1)C(=O)N[C@@H](CCCNC(=N)N)C(=O)N[C@@H](Cc1ccccc1)C(N)=O [Peptide 32, Ac-His-(pI)DPhe-Arg-Phe-NH2] (Ac-H[dPhe(4-I)]RF-NH2)"
system_under_test = "mMC4R (Mus musculus)"
assay_value = 80

[[record]]
compound = "CC(=O)N[C@@H](Cc1c[nH]cn1)C(=O)N[C@H](Cc1ccc(-c2ccccc2)cc1)C(=O)N[C@@H](CCCNC(=N)N)C(=O)N[C@@H](Cc1ccc2ccccc2c1)C(N)=O [Peptide 36, Ac-His-DBip-Arg-Nal(2’)-NH2] (Ac-H[dBip]R[2Nal]-NH2)"
system_under_test = "mMC4R (Mus musculus)"
assay_value = 52

[[record]]
compound = "CC(=O)N[C@@H](Cc1cccnc1)C(=O)N[C@H](Cc1ccccc1)C(=O)N[C@@H](CCCNC(=N)N)C(=O)N[C@@H](Cc1ccc2ccccc2c1)C(N)=O [Peptide 23, Ac-3PAL-DPhe-Arg-Nal(2’)-NH2] (Ac-[3Pal][dF]R[2Nal]-NH2)"
system_under_test = "mMC4R (Mus musculus)"
assay_value = 110

[[record]]
compound = "CCCCCCCC(=O)N[C@@H](Cc1c[nH]cn1)C(=O)N[C@H](Cc1ccccc1)C(=O)N[C@@H](CCCNC(=N)N)C(=O)N[C@@H](Cc1csc2ccccc12)C(N)=O [Peptide 3, Octanoyl-His-DPhe-Arg-3Bal-NH2] (Octanoyl-H[dF]R[Bta]-NH2)"
system_under_test = "mMC4R (Mus musculus)"
assay_value = 13

[[record]]
compound = "CC(=O)N[C@@H](Cc1cccs1)C(=O)N[C@H](Cc1ccccc1)C(=O)N[C@@H](CCCNC(=N)N)C(=O)N[C@@H](Cc1csc2ccccc12)C(N)=O [Peptide 27, Ac-2Thi-DPhe-Arg-3Bal-NH2] (Ac-[2Thi][dF]R[Bta]-NH2)"
system_under_test = "mMC4R (Mus musculus)"
assay_value = 1300


Please turn your attention to the following entry.
So what does the record say about EC50 for CC(=O)N[C@@H](Cc1ccccc1)C(=O)N[C@H](Cc1ccc(-c2ccccc2)cc1)C(=O)N[C@@H](CCCNC(=N)N)C(=O)N[C@@H](Cc1c[nH]c2ccccc12)C(N)=O [Peptide 20, Ac-Phe-DBip-Arg-Trp-NH2] (Ac-F[dBip]RW-NH2) ?
5400
